- TARGET_DESC: β1-adrenergic receptor (Homo sapiens (Human), UniProt P08588)
- Sequence (P08588 whole entry, species assumed): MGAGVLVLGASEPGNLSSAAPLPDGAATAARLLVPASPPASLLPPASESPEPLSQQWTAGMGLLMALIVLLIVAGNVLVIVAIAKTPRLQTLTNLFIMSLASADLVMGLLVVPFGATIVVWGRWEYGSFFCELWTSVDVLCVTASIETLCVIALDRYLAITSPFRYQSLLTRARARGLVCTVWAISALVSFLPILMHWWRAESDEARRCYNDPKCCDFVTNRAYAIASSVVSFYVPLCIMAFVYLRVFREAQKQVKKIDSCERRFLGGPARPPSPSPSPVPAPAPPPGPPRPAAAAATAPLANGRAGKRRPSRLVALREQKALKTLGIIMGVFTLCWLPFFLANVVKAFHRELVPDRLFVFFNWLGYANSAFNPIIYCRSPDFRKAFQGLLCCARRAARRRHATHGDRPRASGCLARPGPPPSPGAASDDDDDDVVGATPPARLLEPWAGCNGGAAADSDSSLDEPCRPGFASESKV
- RUN_DESCRIPTION: cAMP Gs dynamic HTRF assay, β1 expressing CHO cells
- Type: cell-based
- CONDITIONS_USED: B1-AR; CHO-K cells; read-out: Average EC50 [Receptor subtype: B1-AR; Cell type: CHO-K]
MEASUREMENT_NAME: EC50

COMPOUND: CC(C)(C)NC[C@@H](O)c1cccc(C2CCC2)n1 [Compound 03-162]
EC50: > 1 µM

COMPOUND: CC1(NC[C@H](O)c2cccc(C(F)(F)F)n2)CCOCC1 [Compound 03-23]
EC50: 0.1 to 1 µM

COMPOUND: CC(C)(C)NC[C@H](O)c1cccc(-c2ccccc2F)n1 [Compound 03-155]
EC50: 0.01 to 0.1 µM

Record CC1(NC[C@@H](O)c2cccc(C(F)(F)F)n2)CC1 [Compound 03-13] , field EC50: > 1 µM

Record CC(C)(C)NC[C@H](O)c1ccnc(C(F)(F)F)n1 [Compound 03-45] , field EC50: 0.01 to 0.1 µM

Record O[C@@H](CNC1CCOCC1)c1cccc(C(F)(F)F)n1 [Compound 03-25] , field EC50: > 1 µM

Record CC(C)(C)NC[C@H](O)c1cccc(C(N)=O)n1 [Compound 03-17] , field EC50: > 1 µM

Record Cc1cccc(-c2cccc([C@H](O)CNC(C)(C)C)n2)c1 [Compound 03-148] , field EC50: 0.1 to 1 µM

Record CC(C)(C)NC[C@@H](O)c1cccc(N2CCOCC2)n1 [Compound 03-158] , field EC50: > 1 µM

All values here come from patent US10947196B2.
